Each recorded value in this set is attributed to ChEMBL document CHEMBL1149255.

Molecular target: NAD-dependent protein deacetylase sirtuin-2 (Homo sapiens, UniProt Q8IXJ6)
Sequence (Q8IXJ6 whole entry): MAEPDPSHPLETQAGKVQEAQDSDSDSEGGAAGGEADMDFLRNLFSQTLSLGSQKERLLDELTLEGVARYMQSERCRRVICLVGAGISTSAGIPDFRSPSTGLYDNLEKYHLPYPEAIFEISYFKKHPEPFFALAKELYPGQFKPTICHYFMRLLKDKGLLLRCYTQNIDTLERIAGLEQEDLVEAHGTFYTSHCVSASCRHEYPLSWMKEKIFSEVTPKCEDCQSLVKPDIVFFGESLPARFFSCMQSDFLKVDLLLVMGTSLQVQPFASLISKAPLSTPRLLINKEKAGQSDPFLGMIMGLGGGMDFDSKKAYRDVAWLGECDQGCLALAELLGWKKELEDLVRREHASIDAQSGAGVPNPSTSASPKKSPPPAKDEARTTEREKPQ
Experiment: Inhibition of human recombinant GST-tagged SIRT2 by histone deacetylase assay
pIC50: −log10 of the molar value.
Measured pIC50 by item

Look over these answered cases.
[[record]]
chemical_structure = "CN(CCO)c1ccc(C(=O)c2ccc(N(C)CCO)cc2)cc1"
data_value = "< 3.00"

[[record]]
chemical_structure = "O=C(O)CCCCOc1ccc2oc3ccccc3c(=O)c2c1"
data_value = "< 3.00"

[[record]]
chemical_structure = "Oc1ccccc1/C=N/c1ccc(OCCCOc2ccc(/N=C/c3ccccc3O)cc2)cc1"
data_value = "< 3.00"


[ask] Give the measured pIC50 of Oc1ccc(CCc2nnc(S)n2-c2ccc(Cl)cc2)cc1 .
[reply] < 3.52

[ask] Now try Oc1ccccc1/C=N/c1ccc(OCCCCOc2ccc(/N=C/c3ccccc3O)cc2)cc1 .
[reply] < 3.00

---

Target: NAD-dependent protein deacetylase sirtuin-2 (Homo sapiens, UniProt Q8IXJ6)
Experiment: Inhibition of human recombinant GST-tagged SIRT2 by histone deacetylase assay
pIC50: −log10 of the molar value.
Measured pIC50 by item

[[record]]
molecule = "O=c1cc(CSc2n[nH]c(=O)n2C2Cc3ccccc3C2)c2ccc(O)cc2o1"
data_value = "< 3.52"

[[record]]
molecule = "O=C(O)CSCC(=O)N1CCN(c2cc(C(F)(F)F)nc3ccccc23)CC1"
data_value = "< 3.00"

[[record]]
molecule = "O=C1c2cccc3c(SCCO)ccc(c23)C(=O)N1CCc1ccccn1"
data_value = "< 3.00"

[[record]]
molecule = "O=C1c2ccccc2C(=O)c2c(NCCc3ccc(O)cc3)ccc(NCCc3ccc(O)cc3)c21"
data_value = 4.25

[[record]]
molecule = "CC(C)(C)OC(=O)NC(Cc1ccccc1)C(=O)OCc1ccc(CC(=O)O)cc1 (stereo not given)"
data_value = "< 3.00"

[[record]]
molecule = "O=C(Nc1ccc(COc2ccccc2)cc1)Nc1cccc(C(=O)O)c1"
data_value = "< 3.52"


[ask] Give the measured pIC50 of O=C(O)/C=C/C(=O)Nc1cccc(NC(=O)c2ccccc2O)c1 .
[reply] < 3.00

[ask] Now try COc1cc(NC(=O)c2ccccc2)c(C)cc1NC(=O)CC(CC(=O)O)c1ccccc1 (stereo not given) .
[reply] < 3.00

[ask] Now try Cc1ncc(CSc2ccccc2/N=C/c2cc(Cl)cc(Cl)c2O)c(CO)c1O .
[reply] 4.13

[ask] Now try Oc1ccc(/C=N/c2ccc(Cc3ccc(/N=C/c4ccc(O)c(O)c4)cc3)cc2)cc1O .
[reply] < 3.00
